# experimental_target: ATX (Rattus norvegicus)
# experiment_notes: Choline oxidase-coupled choline-release assay of LPC hydrolysis by ATX
# experimental_context: 18:1 LPC, 150 μM LPC, 20 nM ATX
observable: pIC50
Keep it numeric: pIC50 is minus log10 of the concentration in mol/L.

{"compound": "C[C@H](CCC(=O)N1CCC(Oc2ccc([B-](F)(F)F)cc2)CC1)[C@H]1CC[C@H]2C3[C@@H](O)C[C@@H]4C[C@H](O)CC[C@]4(C)[C@H]3CC[C@]12C.[K+] (some centres unmarked)", "pIC50": 7.35}

Then this compound:
Looking up C[C@H](CCC(=O)N1CCC(Oc2ccc(B(O)O)cc2)CC1)[C@H]1CC[C@H]2C3[C@@H](O)C[C@@H]4C[C@H](O)CC[C@]4(C)[C@H]3CC[C@]12C (some centres unmarked) , I see its pIC50 listed as 7.54

Provenance of the data: paper PMC9059126
